The reported measurements were obtained from PubChem BioAssay (NCI).

Test system: K-562 leukemia
measurement notes: NCI-60 one-dose screen, 48 h (100 = growth as untreated, 0 = no growth, -100 = all killed)
condition info: 10 µM unless noted
About 83,000 compounds went through this panel and 20% of them were active in at least one assay; those are over-represented in the sample as a whole.
Where growth equals or exceeds 50%, the correct label is Criterion met; where it does not, the label is Criterion not met.

# input Quick check, growth >= 50%? Cc1ccnc2c(OCc3ccccc3)cccc12
# output Criterion met

# input Determine whether this molecule has growth no lower than 50%: CC(=O)O[C@@H]1CCN2C(=O)N(C)c3ccccc3[C@@H]2C1
# output Criterion met

# input Check the entry COc1cccc(-c2nn(-c3ccccc3)cc2-c2ccnc(NCCCNS(=O)(=O)c3ccc(Br)cc3)c2)c1 : does growth equal or exceed 50%?
# output Criterion not met

# input Does COC(=O)[C@]12CC[C@@H](C)[C@H](C)[C@@H]1C1=CC[C@@H]3[C@@]4(C)C[C@@H](O)[C@H](O)[C@@](C)(CO)C4=CC[C@@]3(C)[C@]1(C)CC2 have a reported growth of at least 50%?
# output Criterion not met

# input Check this molecule for growth at or above 50%: C=C(C)[C@@H]1CC[C@]2(C(=O)OC)CC[C@]3(C)[C@H](CC[C@@H]4[C@@](C)(CC/C(N)=N/O)[C@H](C(=C)C)CC[C@]43C)[C@@H]12
# output Criterion met

# input Say whether c1ccc(-c2nc(Nc3ccc(-c4nc5ccccc5[nH]4)cc3)nc(N3CCOCC3)n2)cc1 shows growth of 50% or more.
# output Criterion not met

# input Hello, I need to know if CCN1CCN(C(=O)[C@]23CCC(C)(C)C[C@@H]2C2=CC[C@@H]4[C@@]5(C)C/C(=C/c6cccnc6)C(=O)C(C)(C)[C@@H]5CC[C@@]4(C)[C@]2(C)CC3)CC1 has measured growth not below 50%. Thanks!
# output Criterion not met

# input Form field: growth at least 50%? Entry: COc1cc(-c2cc3ncccc3c3[nH]c(=O)c4cccnc4c23)cc(OC)c1OC
# output Criterion not met

# input Given the entry CC1(C)CC[C@]2(C(=O)Nc3ccccn3)CC[C@]3(C)C(=CC[C@@H]4[C@@]5(C)C/C(=C/c6ccncc6)C(=O)C(C)(C)[C@@H]5CC[C@]43C)[C@@H]2C1 , answer whether its growth meets or surpasses 50%.
# output Criterion not met

# input Decide: is the reported value of growth for Cc1ccc(-c2nn(Cc3cn(-c4cc(C)nc5ccccc45)nn3)c3ncnc(N)c23)cc1 equal to or greater than 50%?
# output Criterion met

# input Given NC(Cc1ccc(O)cc1)C(=O)N/N=C/c1ccccc1O (stereo not drawn) , state whether its growth is at least 50%.
# output Criterion met

# input In plain terms: is recorded growth at least 50% for Brc1ccc2[nH]cc(-c3nc(-c4c[nH]c5ncccc45)cs3)c2c1 ?
# output Criterion not met

# input API: above_or_equal(metric=growth, cutoff=50%) for item Cc1cc2nc3c4cc(O)ccc4n(CCN(C)C)c3nc2cc1C
# output Criterion not met

# input Given N#C/C(=C\c1ccc(-c2ccc(F)cc2)o1)c1nc(-c2ccco2)cs1 , state whether its growth is at least 50%.
# output Criterion met

# input Dear colleague, could you confirm whether NC(=O)[C@@H]1CC2CCC1C2 (stereo partly drawn) has growth at or above 50%?
# output Criterion not met

# input Evaluate CC(=O)NC1=C(C#N)C(c2ccccc2Cl)c2c(ccc3ccccc23)O1 (stereo not drawn) : growth at minimum 50%?
# output Criterion not met

# input Threshold query (growth >= 50%) on Brc1cnc2[nH]cc(-c3nnc(-c4ccccc4)o3)c2c1
# output Criterion met
